Numbers sourced from BigSolDB 2.1.

details: in isopentanol, 283.15 K
MEASURE: solubility (mole fraction)
Respond using a number only.

Entry under test: CN(C/C=C/C#CC(C)(C)C)Cc1cccc2ccccc12.Cl . Its solubility (mole fraction) was 0.0073

----------
conditions: in n-hexanol, 313.15 K
MEASURE: solubility (mole fraction)

Entry under test: CN(C/C=C/C#CC(C)(C)C)Cc1cccc2ccccc12.Cl . Its solubility (mole fraction) was 0.0291

----------
settings: in ethanol, 303.15 K
MEASURE: solubility (mole fraction)
Respond using a number only.

Entry under test: CN(C/C=C/C#CC(C)(C)C)Cc1cccc2ccccc12.Cl . Its solubility (mole fraction) was 0.0342

----------
conditions: in n-pentanol, 293.15 K
MEASURE: solubility (mole fraction)
Respond using a number only.

Entry under test: CN(C/C=C/C#CC(C)(C)C)Cc1cccc2ccccc12.Cl . Its solubility (mole fraction) was 0.0255

----------
conditions: in isopropanol, 283.15 K
MEASURE: solubility (mole fraction)
Respond using a number only.

Entry under test: CN(C/C=C/C#CC(C)(C)C)Cc1cccc2ccccc12.Cl . Its solubility (mole fraction) was 0.0031

----------
details: in n-propanol, 323.15 K
MEASURE: solubility (mole fraction)
Respond using a number only.

Entry under test: CN(C/C=C/C#CC(C)(C)C)Cc1cccc2ccccc12.Cl . Its solubility (mole fraction) was 0.0735

----------
conditions: in ethanol, 323.15 K
MEASURE: solubility (mole fraction)

Entry under test: CN(C/C=C/C#CC(C)(C)C)Cc1cccc2ccccc12.Cl . Its solubility (mole fraction) was 0.0678

----------
details: in isopentanol, 318.15 K
MEASURE: solubility (mole fraction)
Respond using a number only.

Entry under test: CN(C/C=C/C#CC(C)(C)C)Cc1cccc2ccccc12.Cl . Its solubility (mole fraction) was 0.0389

----------
details: in acetonitrile, 313.15 K
MEASURE: solubility (mole fraction)
Respond using a number only.

Entry under test: CN(C/C=C/C#CC(C)(C)C)Cc1cccc2ccccc12.Cl . Its solubility (mole fraction) was 0.00377

----------
settings: in n-hexanol, 323.15 K
MEASURE: solubility (mole fraction)

Entry under test: CN(C/C=C/C#CC(C)(C)C)Cc1cccc2ccccc12.Cl . Its solubility (mole fraction) was 0.0469

----------
conditions: in sec-butanol, 318.15 K
MEASURE: solubility (mole fraction)
Respond using a number only.

Entry under test: CN(C/C=C/C#CC(C)(C)C)Cc1cccc2ccccc12.Cl . Its solubility (mole fraction) was 0.0227

----------
conditions: in n-hexanol, 293.15 K
MEASURE: solubility (mole fraction)
Respond using a number only.

Entry under test: CN(C/C=C/C#CC(C)(C)C)Cc1cccc2ccccc12.Cl . Its solubility (mole fraction) was 0.0115

----------
settings: in sec-butanol, 303.15 K
MEASURE: solubility (mole fraction)
Respond using a number only.

Entry under test: CN(C/C=C/C#CC(C)(C)C)Cc1cccc2ccccc12.Cl . Its solubility (mole fraction) was 0.00999

----------
details: in n-hexanol, 288.15 K
MEASURE: solubility (mole fraction)
Respond using a number only.

Entry under test: CN(C/C=C/C#CC(C)(C)C)Cc1cccc2ccccc12.Cl . Its solubility (mole fraction) was 0.00916

----------
settings: in acetonitrile, 303.15 K
MEASURE: solubility (mole fraction)
Respond using a number only.

Entry under test: CN(C/C=C/C#CC(C)(C)C)Cc1cccc2ccccc12.Cl . Its solubility (mole fraction) was 0.00254

----------
settings: in n-butanol, 308.15 K
MEASURE: solubility (mole fraction)
Respond using a number only.

Entry under test: CN(C/C=C/C#CC(C)(C)C)Cc1cccc2ccccc12.Cl . Its solubility (mole fraction) was 0.0377

----------
details: in cyclohexanol, 303.15 K
MEASURE: solubility (mole fraction)
Respond using a number only.

Entry under test: CN(C/C=C/C#CC(C)(C)C)Cc1cccc2ccccc12.Cl . Its solubility (mole fraction) was 0.0381

----------
conditions: in ethanol, 288.15 K
MEASURE: solubility (mole fraction)
Respond using a number only.

Entry under test: CN(C/C=C/C#CC(C)(C)C)Cc1cccc2ccccc12.Cl . Its solubility (mole fraction) was 0.0222

----------
settings: in isooctanol, 283.15 K
MEASURE: solubility (mole fraction)
Respond using a number only.

Entry under test: CN(C/C=C/C#CC(C)(C)C)Cc1cccc2ccccc12.Cl . Its solubility (mole fraction) was 0.00196

----------
conditions: in ethanol, 318.15 K
MEASURE: solubility (mole fraction)
Respond using a number only.

Entry under test: CN(C/C=C/C#CC(C)(C)C)Cc1cccc2ccccc12.Cl . Its solubility (mole fraction) was 0.0572

----------
settings: in isopentanol, 308.15 K
MEASURE: solubility (mole fraction)

Entry under test: CN(C/C=C/C#CC(C)(C)C)Cc1cccc2ccccc12.Cl . Its solubility (mole fraction) was 0.0242

----------
conditions: in isooctanol, 318.15 K
MEASURE: solubility (mole fraction)
Respond using a number only.

Entry under test: CN(C/C=C/C#CC(C)(C)C)Cc1cccc2ccccc12.Cl . Its solubility (mole fraction) was 0.0178

----------
conditions: in n-butanol, 303.15 K
MEASURE: solubility (mole fraction)
Respond using a number only.

Entry under test: CN(C/C=C/C#CC(C)(C)C)Cc1cccc2ccccc12.Cl . Its solubility (mole fraction) was 0.0313

----------
conditions: in sec-butanol, 308.15 K
MEASURE: solubility (mole fraction)
Respond using a number only.

Entry under test: CN(C/C=C/C#CC(C)(C)C)Cc1cccc2ccccc12.Cl . Its solubility (mole fraction) was 0.0133

----------
settings: in isopropanol, 323.15 K
MEASURE: solubility (mole fraction)
Respond using a number only.

Entry under test: CN(C/C=C/C#CC(C)(C)C)Cc1cccc2ccccc12.Cl . Its solubility (mole fraction) was 0.0245

----------
conditions: in n-propanol, 308.15 K
MEASURE: solubility (mole fraction)

Entry under test: CN(C/C=C/C#CC(C)(C)C)Cc1cccc2ccccc12.Cl . Its solubility (mole fraction) was 0.0427

----------
settings: in sec-butanol, 313.15 K
MEASURE: solubility (mole fraction)
Respond using a number only.

Entry under test: CN(C/C=C/C#CC(C)(C)C)Cc1cccc2ccccc12.Cl . Its solubility (mole fraction) was 0.0176

----------
conditions: in n-hexanol, 283.15 K
MEASURE: solubility (mole fraction)
Respond using a number only.

Entry under test: CN(C/C=C/C#CC(C)(C)C)Cc1cccc2ccccc12.Cl . Its solubility (mole fraction) was 0.00683

----------
conditions: in cyclohexanol, 308.15 K
MEASURE: solubility (mole fraction)
Respond using a number only.

Entry under test: CN(C/C=C/C#CC(C)(C)C)Cc1cccc2ccccc12.Cl . Its solubility (mole fraction) was 0.048

----------
details: in isopentanol, 288.15 K
MEASURE: solubility (mole fraction)
Respond using a number only.

Entry under test: CN(C/C=C/C#CC(C)(C)C)Cc1cccc2ccccc12.Cl . Its solubility (mole fraction) was 0.00942

----------
settings: in n-butanol, 318.15 K
MEASURE: solubility (mole fraction)

Entry under test: CN(C/C=C/C#CC(C)(C)C)Cc1cccc2ccccc12.Cl . Its solubility (mole fraction) was 0.0568

----------
conditions: in ethanol, 313.15 K
MEASURE: solubility (mole fraction)
Respond using a number only.

Entry under test: CN(C/C=C/C#CC(C)(C)C)Cc1cccc2ccccc12.Cl . Its solubility (mole fraction) was 0.0493

----------
conditions: in isooctanol, 313.15 K
MEASURE: solubility (mole fraction)
Respond using a number only.

Entry under test: CN(C/C=C/C#CC(C)(C)C)Cc1cccc2ccccc12.Cl . Its solubility (mole fraction) was 0.0143

----------
conditions: in isooctanol, 298.15 K
MEASURE: solubility (mole fraction)
Respond using a number only.

Entry under test: CN(C/C=C/C#CC(C)(C)C)Cc1cccc2ccccc12.Cl . Its solubility (mole fraction) was 0.00649

----------
conditions: in isobutanol, 318.15 K
MEASURE: solubility (mole fraction)

Entry under test: CN(C/C=C/C#CC(C)(C)C)Cc1cccc2ccccc12.Cl . Its solubility (mole fraction) was 0.0559

----------
conditions: in n-butanol, 293.15 K
MEASURE: solubility (mole fraction)
Respond using a number only.

Entry under test: CN(C/C=C/C#CC(C)(C)C)Cc1cccc2ccccc12.Cl . Its solubility (mole fraction) was 0.0217

----------
settings: in ethanol, 293.15 K
MEASURE: solubility (mole fraction)
Respond using a number only.

Entry under test: CN(C/C=C/C#CC(C)(C)C)Cc1cccc2ccccc12.Cl . Its solubility (mole fraction) was 0.0245

----------
settings: in isopentanol, 323.15 K
MEASURE: solubility (mole fraction)
Respond using a number only.

Entry under test: CN(C/C=C/C#CC(C)(C)C)Cc1cccc2ccccc12.Cl . Its solubility (mole fraction) was 0.0493
